These measurements were taken from ChEMBL document CHEMBL3244132.

- Test system: Escherichia coli
- ASSAY: Antimicrobial activity against Escherichia coli HL97/W677 carrying AAC(6') by tube dilution method
- Type: functional
Measured MIC, listed per entry for reference.
All answers are understood in µg/mL, so give the number only.

# example entries with known answers
In: Could you tell me which MIC is on file for CN[C@@H]1[C@@H](O)[C@@H](O[C@@H]2[C@@H](O)[C@H](O[C@H]3OC(CNC(C)(C)C)=CC[C@H]3N)[C@@H](N)C[C@H]2N)OC[C@]1(C)O ?
Out: 3

In: Could you tell me which MIC is on file for CN[C@@H]1[C@@H](O)[C@@H](O[C@@H]2[C@@H](O)[C@H](O[C@H]3OC(CN)=CC[C@H]3N)[C@@H](N)C[C@H]2N)OC[C@]1(C)O [SISOMICIN] ?
Out: 7.5

In: Could you tell me which MIC is on file for CN[C@@H]1[C@@H](O)[C@@H](O[C@@H]2[C@@H](O)[C@H](O[C@H]3OC(CNCCc4ccccc4)=CC[C@H]3N)[C@@H](N)C[C@H]2N)OC[C@]1(C)O ?
Out: 0.75

In: Could you tell me which MIC is on file for CN[C@@H]1[C@@H](O)[C@@H](O[C@@H]2[C@@H](O)[C@H](O[C@H]3OC(CNCCO)=CC[C@H]3N)[C@@H](N)C[C@H]2N)OC[C@]1(C)O ?
Out: 0.75

In: Could you tell me which MIC is on file for CNCC1=CC[C@@H](N)[C@@H](O[C@H]2[C@H](O)[C@@H](O[C@H]3OC[C@](C)(O)[C@H](NC)[C@H]3O)[C@H](N)C[C@@H]2N)O1 ?
Out: 0.75

Next:
In: Could you tell me which MIC is on file for CN[C@@H]1[C@@H](O)[C@@H](O[C@@H]2[C@@H](O)[C@H](O[C@H]3OC(CO)=CC[C@H]3N)[C@@H](N)C[C@H]2N)OC[C@]1(C)O ?
Out: 0.3
